System: barnyardgrass (Echinochloa crus-galli)
Experiment: Test B flooded paddy test
Assay type: in vivo
Conditions: Flood (flooded paddy test), 62 g ai/ha; scale of 0 to 100 where 0 is no effect and 100 is complete control; 13 to 15 days
Listing of recorded Plant response rating, Barnyardgrass by entry.
# print the numeric value only

# annotated cases, reported Plant response rating, Barnyardgrass shown
COCCCn1c(-c2cccc(Br)c2)ncc(C(=O)C2=C(O)CCCC2=O)c1=O    20
COCC(C)n1c(-c2ccccc2)ncc(C(=O)C2=C(O)CCCC2=O)c1=O (stereo not drawn)    40
Cc1ccc(Cl)cc1-n1c(-c2cccc(F)c2)ncc(C(=O)C2=C(O)CCCC2=O)c1=O    0

Qu. Write down the reported Plant response rating, Barnyardgrass of CCCc1ncc(C(=O)C2=C(O)CCCC2=O)c(=O)n1CC1CCCO1 (stereo not drawn) , test system: barnyardgrass (Echinochloa crus-galli).
Ans. 0

Qu. Write down the reported Plant response rating, Barnyardgrass of "CCCn1c(-c2cccc(C(F)(F)F)c2)ncc(C(=O)C2=C(O)CCCC2=O)c1=O" , test system: barnyardgrass (Echinochloa crus-galli).
Ans. 0

Qu. Write down the reported Plant response rating, Barnyardgrass of "CCCCn1c(-c2cc(F)cc(F)c2)ncc(C(=O)C2=C(O)CCCC2=O)c1=O" , test system: barnyardgrass (Echinochloa crus-galli).
Ans. 30

Values from patent US8952024B2
